Test system: MKN45 cells
Test summary: MKN45 cell proliferation assay (CellTiter-Glo)
Type: cell-based
Measurement conditions: Homo sapiens, MKN-45, 72 h, MKN45 cell line, 3 days incubation, at least duplicate experiments, read-out: Prolif. IC50
Quick reference: IC50 of the listed items.
Assay endpoint: IC50

* C[C@@H](c1c(Cl)ccc(F)c1Cl)c1c[nH]c2ncc(-c3cnn(C4CCNCC4)c3)cc12 | 100 to 1000 nM
* CC(c1c(Cl)ccc(F)c1Cl)c1c[nH]c2ncc(-c3ccc(C(=O)N4CCN(C)CC4)cc3)cc12 (stereo not shown) | 100 to 1000 nM
* CC(c1c(Cl)ccc(F)c1Cl)c1c[nH]c2ncc(C3=CCN(C(=O)N(C)C)CC3)cc12 (stereo not shown) | 100 to 1000 nM
* CC(c1c(Cl)ccc(F)c1Cl)c1c[nH]c2ncc(C3=CCN(C=O)CC3)cc12 (stereo not shown) | 100 to 1000 nM
* CC(c1c(Cl)ccc(F)c1Cl)c1c[nH]c2ncc(C3=CCN(S(N)(=O)=O)CC3)cc12 (stereo not shown) | 100 to 1000 nM
* C[C@H](c1c(Cl)ccc(F)c1Cl)c1c[nH]c2ncc(C3=CCCN(C(N)=O)C3)cc12 | 100 to 1000 nM
* CC(c1c(Cl)ccc(F)c1Cl)c1c[nH]c2ncc(-c3ccc(C(=O)N4CCOCC4)cc3)cc12 (stereo not shown) | 100 to 1000 nM
* C[C@H](c1c(Cl)ccc(F)c1Cl)c1c[nH]c2ncc(-c3cnn(CCO)c3)cc12 | ≤ 100 nM
* C[C@H](c1c(Cl)ccc(F)c1Cl)c1c[nH]c2ncc(-c3cnn(C4CCN(S(C)(=O)=O)CC4)c3)cc12 | ≤ 100 nM
* CC(c1c(Cl)ccc(F)c1Cl)c1c[nH]c2ncc(-c3ccc(C(=O)NCCN(C)C)cc3)cc12 (stereo not shown) | 100 to 1000 nM
* CC(c1c(Cl)cccc1Cl)c1c[nH]c2ncc(-c3cnn(C4CCNCC4)c3)cc12 (stereo not shown) | 100 to 1000 nM
* CC(c1c(Cl)ccc(F)c1Cl)c1c[nH]c2ncc(-c3ccc(N(C)C)cc3)cc12 (stereo not shown) | 1000 to 10000 nM
* CC(c1c(Cl)ccc(F)c1Cl)c1c[nH]c2ncc(-c3cnn(C(C)(C)C(=O)O)c3)cc12 (stereo not shown) | 1000 to 10000 nM
* CNC(=O)Cn1cc(-c2cnc3[nH]cc([C@H](C)c4c(Cl)ccc(F)c4Cl)c3c2)cn1 | ≤ 100 nM
* CC(c1c(Cl)ccc(F)c1Cl)c1c[nH]c2ncc(-c3cnn(C4CN(C(=O)N(C)C)C4)c3)cc12 (stereo not shown) | 100 to 1000 nM
* CC(c1c(Cl)ccc(F)c1Cl)c1c[nH]c2ncc(-c3cnn(C4CN(S(C)(=O)=O)C4)c3)cc12 (stereo not shown) | 100 to 1000 nM
* CNC(=O)C(C)(C)n1cc(-c2cnc3[nH]cc(C(C)c4c(Cl)ccc(F)c4Cl)c3c2)cn1 (stereo not shown) | 100 to 1000 nM
* C[C@H](c1c(Cl)ccc(F)c1Cl)c1c[nH]c2ncc(-c3cnn(CC(=O)N4CCN(C)CC4)c3)cc12 | ≤ 100 nM
* CC(c1c(Cl)ccc(F)c1Cl)c1c[nH]c2ncc(-c3cnn(C)c3)cc12 (stereo not shown) | 100 to 1000 nM

All values here come from patent US8592448B2.
